# System: Fatty acid synthase (Homo sapiens)
# Sequence (P49327 whole entry, the tested form may be a part): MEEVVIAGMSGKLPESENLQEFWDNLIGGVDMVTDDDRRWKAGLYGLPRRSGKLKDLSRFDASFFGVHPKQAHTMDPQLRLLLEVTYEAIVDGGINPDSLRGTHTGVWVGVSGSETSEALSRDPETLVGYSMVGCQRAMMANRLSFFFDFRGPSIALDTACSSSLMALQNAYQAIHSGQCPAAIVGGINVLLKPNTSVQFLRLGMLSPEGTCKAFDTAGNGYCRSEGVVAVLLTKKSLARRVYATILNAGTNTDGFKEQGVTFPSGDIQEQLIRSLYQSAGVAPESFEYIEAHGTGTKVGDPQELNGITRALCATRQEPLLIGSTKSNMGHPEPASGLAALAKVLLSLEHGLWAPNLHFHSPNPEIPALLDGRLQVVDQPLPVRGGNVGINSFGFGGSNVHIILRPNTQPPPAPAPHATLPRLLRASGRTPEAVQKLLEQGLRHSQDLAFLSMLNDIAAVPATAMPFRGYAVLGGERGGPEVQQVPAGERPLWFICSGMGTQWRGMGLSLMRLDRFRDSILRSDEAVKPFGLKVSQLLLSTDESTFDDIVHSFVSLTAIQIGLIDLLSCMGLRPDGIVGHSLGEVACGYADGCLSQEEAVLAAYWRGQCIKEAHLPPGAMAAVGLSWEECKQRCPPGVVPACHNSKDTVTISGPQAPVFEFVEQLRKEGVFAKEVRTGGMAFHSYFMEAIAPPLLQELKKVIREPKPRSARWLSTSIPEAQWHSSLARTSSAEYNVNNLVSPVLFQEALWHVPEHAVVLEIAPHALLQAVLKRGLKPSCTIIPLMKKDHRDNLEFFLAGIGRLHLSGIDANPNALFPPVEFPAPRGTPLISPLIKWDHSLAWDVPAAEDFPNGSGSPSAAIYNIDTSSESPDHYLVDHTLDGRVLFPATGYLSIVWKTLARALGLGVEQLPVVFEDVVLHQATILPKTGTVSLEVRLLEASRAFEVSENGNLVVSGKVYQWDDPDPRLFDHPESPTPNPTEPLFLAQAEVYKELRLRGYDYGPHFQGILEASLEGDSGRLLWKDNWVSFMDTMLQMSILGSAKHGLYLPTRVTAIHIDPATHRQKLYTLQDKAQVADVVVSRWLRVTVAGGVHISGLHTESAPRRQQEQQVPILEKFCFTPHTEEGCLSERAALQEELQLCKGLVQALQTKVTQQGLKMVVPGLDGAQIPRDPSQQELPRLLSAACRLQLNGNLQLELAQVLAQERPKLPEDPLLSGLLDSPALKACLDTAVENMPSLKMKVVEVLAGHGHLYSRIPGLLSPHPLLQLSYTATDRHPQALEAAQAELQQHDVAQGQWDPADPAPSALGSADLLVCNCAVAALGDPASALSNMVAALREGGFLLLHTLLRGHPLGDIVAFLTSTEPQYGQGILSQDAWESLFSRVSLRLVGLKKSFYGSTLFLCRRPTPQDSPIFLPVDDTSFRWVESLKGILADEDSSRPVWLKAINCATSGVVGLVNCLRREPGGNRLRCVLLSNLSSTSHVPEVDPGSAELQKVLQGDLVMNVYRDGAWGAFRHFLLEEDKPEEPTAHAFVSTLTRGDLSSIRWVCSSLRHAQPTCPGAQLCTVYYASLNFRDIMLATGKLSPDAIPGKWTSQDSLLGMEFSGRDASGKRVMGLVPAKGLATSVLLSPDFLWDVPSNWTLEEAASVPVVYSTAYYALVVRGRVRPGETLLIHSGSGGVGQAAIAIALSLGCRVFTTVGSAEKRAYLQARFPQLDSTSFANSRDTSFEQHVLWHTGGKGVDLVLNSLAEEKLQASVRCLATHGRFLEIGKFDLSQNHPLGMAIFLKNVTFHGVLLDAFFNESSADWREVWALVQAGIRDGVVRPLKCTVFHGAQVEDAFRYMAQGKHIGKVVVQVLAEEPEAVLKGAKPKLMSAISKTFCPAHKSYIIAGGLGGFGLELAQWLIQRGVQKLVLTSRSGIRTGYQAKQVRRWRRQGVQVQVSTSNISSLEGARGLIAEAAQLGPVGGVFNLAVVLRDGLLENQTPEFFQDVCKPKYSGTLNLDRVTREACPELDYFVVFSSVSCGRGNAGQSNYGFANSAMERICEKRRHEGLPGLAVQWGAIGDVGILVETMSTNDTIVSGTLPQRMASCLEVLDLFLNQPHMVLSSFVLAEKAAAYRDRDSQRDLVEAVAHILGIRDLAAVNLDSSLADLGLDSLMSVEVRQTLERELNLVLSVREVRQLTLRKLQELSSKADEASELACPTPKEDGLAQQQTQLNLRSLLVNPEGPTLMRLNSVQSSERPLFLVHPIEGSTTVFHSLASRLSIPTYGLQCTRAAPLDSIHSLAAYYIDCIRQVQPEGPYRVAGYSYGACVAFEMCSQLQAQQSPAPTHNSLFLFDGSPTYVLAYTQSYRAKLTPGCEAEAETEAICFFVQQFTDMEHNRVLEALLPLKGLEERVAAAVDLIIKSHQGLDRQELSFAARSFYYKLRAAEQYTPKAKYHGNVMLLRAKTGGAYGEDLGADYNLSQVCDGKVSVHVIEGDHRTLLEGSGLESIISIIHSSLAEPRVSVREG
# Procedure summary: Inhibition of human recombinant FASN thioesterase domain
Assay readout: IC50 (µM)
Reply numerically in µM, unit not repeated.

## Input // query IC50 value for entry H-RKQEEDEDEEQQRE-OH
## Output 11

## Input Same again, this time with H-EITPEKNPQLR-OH
## Output 10

###

# System: ATP-citrate synthase (Rattus norvegicus, UniProt P16638)
# Sequence (P16638 whole entry): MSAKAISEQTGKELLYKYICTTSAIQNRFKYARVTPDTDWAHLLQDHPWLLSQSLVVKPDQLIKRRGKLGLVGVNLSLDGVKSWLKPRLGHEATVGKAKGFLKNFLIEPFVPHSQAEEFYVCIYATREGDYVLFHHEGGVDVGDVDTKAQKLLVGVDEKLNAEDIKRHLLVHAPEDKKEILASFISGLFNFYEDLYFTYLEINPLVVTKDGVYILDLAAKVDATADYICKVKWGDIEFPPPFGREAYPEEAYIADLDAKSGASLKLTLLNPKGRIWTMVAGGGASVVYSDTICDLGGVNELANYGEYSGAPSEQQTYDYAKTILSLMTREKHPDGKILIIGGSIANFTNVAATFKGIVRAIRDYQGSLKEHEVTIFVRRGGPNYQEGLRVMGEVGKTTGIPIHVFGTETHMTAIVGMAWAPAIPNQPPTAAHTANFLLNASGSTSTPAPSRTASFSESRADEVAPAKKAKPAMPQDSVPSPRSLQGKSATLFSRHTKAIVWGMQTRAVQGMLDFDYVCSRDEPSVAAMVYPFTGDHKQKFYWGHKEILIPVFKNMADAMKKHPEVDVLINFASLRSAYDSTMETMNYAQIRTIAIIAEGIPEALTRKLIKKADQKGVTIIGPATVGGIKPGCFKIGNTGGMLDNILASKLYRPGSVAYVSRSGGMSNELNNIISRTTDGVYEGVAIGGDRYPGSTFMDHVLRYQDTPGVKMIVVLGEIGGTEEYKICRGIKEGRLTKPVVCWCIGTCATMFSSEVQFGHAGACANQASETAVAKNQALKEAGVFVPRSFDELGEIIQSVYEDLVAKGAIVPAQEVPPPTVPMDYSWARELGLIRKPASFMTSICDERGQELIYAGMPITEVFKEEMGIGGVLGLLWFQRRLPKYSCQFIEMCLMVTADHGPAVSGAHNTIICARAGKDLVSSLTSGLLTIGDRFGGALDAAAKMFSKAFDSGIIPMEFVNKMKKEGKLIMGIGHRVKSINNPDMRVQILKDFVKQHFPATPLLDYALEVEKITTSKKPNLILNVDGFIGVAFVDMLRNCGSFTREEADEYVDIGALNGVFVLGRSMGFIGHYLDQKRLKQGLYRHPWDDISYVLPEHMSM
# Procedure summary: Competitive inhibition of rat liver ACLY using ATP as substrate by spectrophotometric analysis
Assay readout: pKi
Quick note: pKi means taking -log10 of the concentration in moles per liter.

## Input // query pKi value for entry C[C@@H]1C[C@H]2O[C@@H]2/C=C\C=C\C(=O)Cc2c(Cl)c(O)cc(O)c2C(=O)O1
## Output 5.15
